# TEST_DESCRIPTION: protein stability index of a GFP-peptide fusion (GPS, HEK-293T) (PSI 1-6); higher = more stable;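 further: 24-mer peptide tiles fused after GFP, lentivirally expressed, FACS-sorted into six equal bins by GFP/DsRed ratio, decoded by Illumina sequencing, PSI is the read-weighted mean bin number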
# SETTINGS: treatment: DMSO; c terminus: a fixed tail appended
Consider the following sequences; for each one, report its protein stability index.
One number for each entry.

# count of solved cases: 8
INSERT INTO assay_data (sequence_entry, result_number) VALUES
  ('KKDILLVNDHLLNFVRERTLDKRW [PDS5B]', 2.13),
  ('SKAWHQKSHFQNSREWSGKEKWWD [PBXIP1]', 2.94),
  ('DALRNLKCGSGARGGDGEVASAPL [TRADD]', 4.15),
  ('LYLCPNGARCATWFQDPTRFTGTM [SLC25A39]', 2.82),
  ('QRSTVFKTTIPEEEEEEEEAAGVV [LMNB1]', 5.6),
  ('SCLKAIVLFTSDACGLSDVAHVES [NR2F2]', 2.43),
  ('IEITFSYWDGSGHRRTVKMRKGNT [FAM50A]', 2.27),
  ('DPGQDLVPKQAIQVQEADEAGWGG [DLX1]', 5.18);

Dear colleague, could you please provide protein stability index for the sequences listed below?
1. RELAERGVRIVSRGRTQLFSLNPR [PCDHGA10]
2. KCHLWTAMDLGFFVVMGVIGGLLG [CLCN6]

1: 3.2; 2: 3.14
